- Measured On: USP7 (Homo sapiens, UniProt Q93009)
- Construct: full length human USP7 protein
- Sequence (Q93009 whole entry): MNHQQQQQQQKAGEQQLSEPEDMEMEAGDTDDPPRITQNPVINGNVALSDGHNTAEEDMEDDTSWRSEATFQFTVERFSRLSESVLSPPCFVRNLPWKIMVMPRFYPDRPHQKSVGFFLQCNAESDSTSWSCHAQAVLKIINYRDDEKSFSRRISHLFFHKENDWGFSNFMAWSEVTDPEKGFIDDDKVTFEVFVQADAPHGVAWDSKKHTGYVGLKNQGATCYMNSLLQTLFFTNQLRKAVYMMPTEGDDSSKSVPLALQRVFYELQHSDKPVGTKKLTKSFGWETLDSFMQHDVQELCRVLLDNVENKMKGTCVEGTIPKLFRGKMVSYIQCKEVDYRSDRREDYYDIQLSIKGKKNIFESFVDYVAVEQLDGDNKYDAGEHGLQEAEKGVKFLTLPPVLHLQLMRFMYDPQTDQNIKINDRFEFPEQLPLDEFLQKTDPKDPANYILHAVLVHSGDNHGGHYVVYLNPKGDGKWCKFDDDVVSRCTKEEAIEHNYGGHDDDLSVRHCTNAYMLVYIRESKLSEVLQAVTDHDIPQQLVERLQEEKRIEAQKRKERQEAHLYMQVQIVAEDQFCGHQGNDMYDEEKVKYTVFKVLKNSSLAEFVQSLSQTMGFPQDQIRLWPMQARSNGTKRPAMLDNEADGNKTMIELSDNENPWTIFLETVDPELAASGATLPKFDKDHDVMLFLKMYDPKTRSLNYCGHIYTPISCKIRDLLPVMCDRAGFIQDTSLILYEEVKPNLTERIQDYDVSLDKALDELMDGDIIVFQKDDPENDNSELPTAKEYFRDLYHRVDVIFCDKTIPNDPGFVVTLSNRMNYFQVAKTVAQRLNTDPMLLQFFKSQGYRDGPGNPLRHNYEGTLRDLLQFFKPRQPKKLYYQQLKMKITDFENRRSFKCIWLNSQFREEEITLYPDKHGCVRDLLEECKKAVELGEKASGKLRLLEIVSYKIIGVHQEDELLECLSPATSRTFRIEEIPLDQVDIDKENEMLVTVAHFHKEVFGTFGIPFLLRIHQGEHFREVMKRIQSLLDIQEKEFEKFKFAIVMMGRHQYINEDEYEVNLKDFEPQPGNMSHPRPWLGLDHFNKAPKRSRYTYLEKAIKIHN
- Test Name: USP7, Ub-PLA2 assay
- Conditions Used: Ub-PLA2 / NBD C6-HPC fluorescence, 30 minute preincubation; read-out: EC50 for inhibition of USP7
- Method: The purpose of this assay is to measure the inhibition of USP7 by various compounds of the invention synthesized according to the above-described methods. […] The vehicle control was 100% (v/v) DMSO. 1.6 μL aliquots of the diluted test compound and controls were dispensed into individual wells in a black walled 96 well plate. […] The data were normalized within a plate relative to the control wells using the equation % inhibition=(100−(((RFUcompound−RFUmean NEM) / (RFUmean DMSO−RFUmean NEM))×100)).
Property Measured: EC50

q: Specify EC50 for O=C(NC1CCN(C2CC2)C1)c1cc([N+](=O)[O-])c(Sc2c(Cl)cncc2Cl)s1 (centres unmarked) [Example 198] and stop.
a: 1000 to 10000 nM

q: Name the recorded EC50 of the item O=C(NCCCN1CCC(CO)CC1)c1cc([N+](=O)[O-])c(Sc2c(Cl)cncc2Cl)s1 [Example 227] in your answer.
a: ≤ 1000 nM

q: Return EC50 for the following compound: O=C(NCCOc1ccccc1)c1cc([N+](=O)[O-])c(Sc2c(Cl)cncc2Cl)s1 [Example 54]
a: 1000 to 10000 nM

q: Return EC50 (reported value) for this compound: CS(=O)(=O)c1cc([N+](=O)[O-])c(Sc2ccc(Cl)cc2Cl)s1 [Example 23]
a: 1000 to 10000 nM

q: Please supply the value of reported EC50 for the item O=C(NCCCN1CCCC1=O)c1cc([N+](=O)[O-])c(Sc2c(Cl)cncc2Cl)s1 [Example 104]
a: ≤ 1000 nM

q: Provide one value: measured EC50 of O=C(NC1CCCNC1=O)c1cc([N+](=O)[O-])c(Sc2c(Cl)cncc2Cl)s1 (centres unmarked) [Example 95]
a: 1000 to 10000 nM
